Reference for the values: the supplement of paper PMC10266784

B1: library; numbered along this chain (parent)
chain: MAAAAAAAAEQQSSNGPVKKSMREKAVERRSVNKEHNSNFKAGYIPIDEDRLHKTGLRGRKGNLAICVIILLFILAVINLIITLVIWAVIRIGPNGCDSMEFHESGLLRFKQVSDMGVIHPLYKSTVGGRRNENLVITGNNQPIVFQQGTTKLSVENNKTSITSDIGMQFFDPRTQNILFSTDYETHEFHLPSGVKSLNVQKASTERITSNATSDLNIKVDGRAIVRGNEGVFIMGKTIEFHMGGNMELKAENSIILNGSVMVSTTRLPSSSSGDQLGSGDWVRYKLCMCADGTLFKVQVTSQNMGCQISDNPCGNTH

- Variants of: B1
- PROCEDURE_SUMMARY: SGCB cell-surface expression functional score (HA stain, bin4 vs bin1, normalised to synonymous) (log10 ratio); higher = more cell-surface SGCB (functional)
Categories are assigned from the measured SGCB cell-surface expression functional score (log10) using these intervals: lower band: < -0.4; central band: ≥ -0.4 and < 0.1; upper band: ≥ 0.1

Check out these entries, answers already filled in.
[
  {
    "CHANGE": "P313D",
    "ASSIGNED_LABEL": "lower band"
  },
  {
    "CHANGE": "G293Y",
    "ASSIGNED_LABEL": "central band"
  },
  {
    "CHANGE": "Y123G",
    "ASSIGNED_LABEL": "central band"
  },
  {
    "CHANGE": "G139Q",
    "ASSIGNED_LABEL": "lower band"
  },
  {
    "CHANGE": "L84E",
    "ASSIGNED_LABEL": "upper band"
  }
]

[in] Kindly identify the class of T317G .
[out] upper band

[in] Repeat for the following variant: N63G
[out] upper band

[in] Next entry: I234S
[out] lower band

[in] Try this variant next: I162Y
[out] lower band

[in] Quick one: R51S
[out] central band

[in] Item: I255F
[out] upper band
